- system_name: MDM2 (Homo sapiens)
- assay_overview: MDM2 binding screen of Libraries 3 and 4: displacement of fluorescent probe F-M8 at 750 nM macrocycle
- condition_info: Panel b, Library 3: 63 scaffolds combinatorially acylated with 15 carboxylic acids at 30 picomole scale; displacement of fluorescent peptide probe; macrocycle 750 nM
Can you tell me fraction of fluorescent probe displaced for the items I'm about to list?

> print(dat)
                                   compound          system.name                                 endpoint  test.result
1  Cn1cc(C[C@@H]2NC(=O)[C@@H](CNC(=O)c3ccc4ccccc4c3)NC(=O)[C@@H]3CN(CCO3)C(=O)CCSSCCNC2=O)c2ccccc21  MDM2 (Homo sapiens)  fraction of fluorescent probe displaced        0.050
2  O=C1CCSSCCNC(=O)C(Cc2ccc3ccccc3c2)NC(=O)CN(CCNC(=O)C2CC2c2ccccc2)C(=O)C2(CC2)CN1 (centres unmarked)  MDM2 (Homo sapiens)  fraction of fluorescent probe displaced       -0.041
3  Cn1cc(C[C@@H]2NC(=O)[C@@H](CNC(=O)c3ccc(Cl)cc3)NC(=O)C3(CC3)CNC(=O)CCSSCCNC2=O)c2ccccc21  MDM2 (Homo sapiens)  fraction of fluorescent probe displaced     -0.00533

Hi! Can you tell me fraction of fluorescent probe displaced for each of these compounds?
1. O=C(/C=C/c1ccc(OCc2ccccc2)cc1)NC[C@@H]1NC(=O)[C@H]2CCCN(C2)C(=O)CCSSCCNC(=O)[C@H](Cc2c[nH]c3ccccc23)NC1=O
2. O=C(NC[C@@H]1NC(=O)[C@@H]2CN(CCO2)C(=O)CCSSCCNC(=O)[C@H](Cc2c[nH]c3ccccc23)NC1=O)C1COc2ccccc2O1 (some centres unmarked)

1: 0.015; 2: -0.00533

* * *

Assign fraction of fluorescent probe displaced to each entry below.
- system_name: MDM2 (Homo sapiens)
- assay_overview: MDM2 binding screen of Libraries 3 and 4: displacement of fluorescent probe F-M8 at 750 nM macrocycle
- condition_info: Panel b, Library 3: 63 scaffolds combinatorially acylated with 15 carboxylic acids at 30 picomole scale; displacement of fluorescent peptide probe; macrocycle 750 nM
Answers are plain numbers.

molecule	endpoint	test_result
CC(Oc1cccc(Cl)c1)C(=O)NC[C@H]1NC(=O)[C@H]2CCCN(C2)C(=O)CCSSCCNC(=O)[C@H](Cc2c[nH]c3ccccc23)NC1=O (stereo partly drawn) [X-Nip-D-Dap-Trp + Acid 113]	fraction of fluorescent probe displaced	-0.019
O=C(NC[C@H]1NC(=O)[C@H]2CCCN(C2)C(=O)CCSSCCNC(=O)[C@H](Cc2cccc3ccccc23)NC1=O)c1ccc2ccccc2c1 [X-Nip-D-Dap-1-NaI + Acid 107]	fraction of fluorescent probe displaced	0.00455
O=C(/C=C/c1ccc(OCc2ccccc2)cc1)NCCN1CC(=O)N[C@@H](Cc2c[nH]c3ccccc23)C(=O)NCCSSCCC(=O)NCC2(CC2)C1=O [X-Amcp-N-Aeg-Trp + Acid 110]	fraction of fluorescent probe displaced	0.015
O=C(NCC1NC(=O)C2CN(CCO2)C(=O)CCSSCCNC(=O)C(Cc2c[nH]c3ccccc23)NC1=O)c1ccc(Cl)cc1 (stereo not drawn) [X-Cop-Dap-Trp + Acid 25]	fraction of fluorescent probe displaced	0.041
O=C1CCSSCCNC(=O)[C@H](Cc2c[nH]c3ccccc23)NC(=O)[C@@H](CNC(=O)c2ccc3ccccc3c2)NC(=O)C2(CC2)CN1 [X-Amcp-D-Dap-Trp + Acid 107]	fraction of fluorescent probe displaced	0.024

# return fraction of fluorescent probe displaced for each item in the list
1. O=C(/C=C/c1ccc2ccccc2c1)NCCN1CC(=O)N[C@@H](Cc2ccc3ccccc3c2)C(=O)NCCSSCCC(=O)N2CCO[C@@H](C2)C1=O [X-Cop-N-Aeg-2-Nal + Acid 112]
2. Cn1cc(C[C@@H]2NC(=O)CN(CCNC(=O)c3cccc(Oc4ccccc4)c3)C(=O)[C@@H]3CN(CCO3)C(=O)CCSSCCNC2=O)c2ccccc21 [X-Cop-N-Aeg-Me-Trp + Acid 111]

0.035
-0.00533

Quick request: fraction of fluorescent probe displaced for each listed item, please.
1. O=C1CN(CCNC(=O)c2ccc(Cl)cc2)C(=O)C2CN(CCO2)C(=O)CCSSCCNC(=O)C(Cc2cccc3ccccc23)N1 (stereo not drawn) [X-Cop-N-Aeg-1-NaI + Acid 25]
2. O=C(C=Cc1ccc(Cl)cc1)NCC1NC(=O)C2CN(CCO2)C(=O)CCSSCCNC(=O)C(Cc2c[nH]c3cc(Cl)ccc23)NC1=O (stereo not drawn) [X-Cop-Dap-Cl-Trp + Acid 108]
3. O=C(CCS(=O)(=O)c1ccccc1)NC[C@@H]1NC(=O)[C@@H]2CN(CCO2)C(=O)CCSSCCNC(=O)[C@H](Cc2ccc3ccccc3c2)NC1=O [X-Cop-Dap-2-Nal + Acid 114]
4. CN1C(=O)[C@@H](CNC(=O)c2ccc(Cl)s2)NC(=O)[C@H]2CCCN(C2)C(=O)CCSSCCNC(=O)[C@@H]1Cc1c[nH]c2ccccc12 [X-Nip-D-Dap-NMe-Trp + Acid 14]

1: 0.008; 2: 0.075; 3: -0.00533; 4: 0.00133

Each molecule below has a recorded value; state its fraction of fluorescent probe displaced.
1. O=C(NC[C@H]1NC(=O)[C@@H]2CN(CCO2)C(=O)CCSSCCNC(=O)[C@H](Cc2ccc3ccccc3c2)NC1=O)c1cccc(Oc2ccccc2)c1 [X-Cop-D-Dap-2-Nal + Acid 111]
2. O=C1CCSSCCNC(=O)C(Cc2c[nH]c3ccccc23)NC(=O)C(CNC(=O)C2CC2c2ccccc2)NC(=O)C2(CC2)CN1 (mixture of isomers) [X-Amcp-D-Dap-D-Trp + Acid 105]
3. Cn1cc(C[C@@H]2NC(=O)[C@H](CNC(=O)CCS(=O)(=O)c3ccccc3)NC(=O)[C@H]3CCCN(C3)C(=O)CCSSCCNC2=O)c2ccccc21 [X-Nip-Dap-Me-Trp + Acid 114]
4. O=C(NC[C@@H]1NC(=O)[C@H]2CCCN(C2)C(=O)CCSSCCNC(=O)[C@H](Cc2c[nH]c3ccccc23)NC1=O)c1ccc(Cl)cc1 [X-Nip-Dap-Trp + Acid 25]
5. O=C(NCC1NC(=O)C2CN(CCO2)C(=O)CCSSCCNC(=O)C(Cc2cccc3ccccc23)NC1=O)c1ccc(Cl)cc1 (stereo not drawn) [X-Cop-Dap-1-NaI + Acid 25]

[0.00133, -0.041, -0.00533, 0.194, -0.012]

* * *

- system_name: MDM2 (Homo sapiens, UniProt Q00987)
- Sequence (Q00987 whole entry): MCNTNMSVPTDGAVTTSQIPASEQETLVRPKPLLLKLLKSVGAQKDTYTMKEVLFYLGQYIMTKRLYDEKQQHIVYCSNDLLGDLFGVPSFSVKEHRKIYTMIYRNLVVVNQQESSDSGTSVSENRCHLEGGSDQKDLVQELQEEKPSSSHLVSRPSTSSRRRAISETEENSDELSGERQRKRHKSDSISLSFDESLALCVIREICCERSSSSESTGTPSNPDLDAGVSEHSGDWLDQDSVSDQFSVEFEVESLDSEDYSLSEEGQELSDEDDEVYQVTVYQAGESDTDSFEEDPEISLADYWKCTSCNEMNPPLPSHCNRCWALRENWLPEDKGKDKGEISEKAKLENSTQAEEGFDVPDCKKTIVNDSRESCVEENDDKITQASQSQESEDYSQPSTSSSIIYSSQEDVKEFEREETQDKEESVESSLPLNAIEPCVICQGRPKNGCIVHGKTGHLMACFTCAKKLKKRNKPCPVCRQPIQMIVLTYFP
- assay_overview: MDM2 binding screen of Libraries 3 and 4: displacement of fluorescent probe F-M8 at 750 nM macrocycle
- condition_info: Panel b, Library 3: 63 scaffolds combinatorially acylated with 15 carboxylic acids at 30 picomole scale; displacement of fluorescent peptide probe; macrocycle 750 nM
endpoint: fraction of fluorescent probe displaced
Numbers only.

compound	endpoint	test_result
O=C1CN(CCNC(=O)C2COc3ccccc3O2)C(=O)[C@H]2CCCN(C2)C(=O)CCSSCCNC(=O)[C@H](Cc2c[nH]c3ccccc23)N1 (some centres unmarked) [X-Nip-N-Aeg-Trp + Acid 115]	fraction of fluorescent probe displaced	0.021
O=C1CN(CCNC(=O)c2ccc(Cl)cc2)C(=O)C2CN(CCO2)C(=O)CCSSCCNC(=O)C(Cc2c[nH]c3ccccc23)N1 (centres unmarked) [X-Cop-N-Aeg-Trp + Acid 25]	fraction of fluorescent probe displaced	0.055
O=C1CCSSCCNC(=O)[C@H](Cc2c[nH]c3ccccc23)NC(=O)[C@H](CNC(=O)c2ccc3ccccc3c2)NC(=O)C2(CC2)CN1 [X-Amcp-Dap-Trp + Acid 107]	fraction of fluorescent probe displaced	0.063
O=C(CCS(=O)(=O)c1ccccc1)NC[C@@H]1NC(=O)[C@H]2CCCN(C2)C(=O)CCSSCCNC(=O)[C@@H](Cc2c[nH]c3ccccc23)NC1=O [X-Nip-Dap-D-Trp + Acid 114]	fraction of fluorescent probe displaced	0.00133
O=C(NCC1NC(=O)C2CN(CCO2)C(=O)CCSSCCNC(=O)C(Cc2cccc3ccccc23)NC1=O)c1cccc(Oc2ccccc2)c1 [X-Cop-D-Dap-1-NaI + Acid 111]	fraction of fluorescent probe displaced	0.008

Consider the following items and state reported fraction of fluorescent probe displaced for each.
1. O=C(NC[C@H]1NC(=O)[C@H]2CCCN(C2)C(=O)CCSSCCNC(=O)[C@H](Cc2c[nH]c3cc(Cl)ccc23)NC1=O)c1ccc(Cl)cc1 [X-Nip-D-Dap-Cl-Trp + Acid 25]
2. O=C(/C=C/c1ccc2ccccc2c1)NC[C@@H]1NC(=O)[C@@H]2CN(CCO2)C(=O)CCSSCCNC(=O)[C@@H](Cc2c[nH]c3ccccc23)NC1=O [X-Cop-Dap-D-Trp + Acid 112]
3. CC(Oc1cccc(Cl)c1)C(=O)NCCN1CC(=O)N[C@@H](Cc2ccc3ccccc3c2)C(=O)NCCSSCCC(=O)N2CCC[C@@H](C2)C1=O (some centres unmarked) [X-Nip-N-Aeg-2-Nal + Acid 113]
4. O=C(/C=C/c1ccc2ccccc2c1)NC[C@@H]1NC(=O)C2(CC2)CNC(=O)CCSSCCNC(=O)[C@H](Cc2ccc3ccccc3c2)NC1=O [X-Amcp-Dap-2-Nal + Acid 112]
5. CN1C(=O)[C@H](CNC(=O)CCS(=O)(=O)c2ccccc2)NC(=O)[C@H]2CCCN(C2)C(=O)CCSSCCNC(=O)[C@@H]1Cc1c[nH]c2ccccc12 [X-Nip-Dap-NMe-Trp + Acid 114]
6. CC(Oc1cccc(Cl)c1)C(=O)NCC1NC(=O)C2(CC2)CNC(=O)CCSSCCNC(=O)C(Cc2ccc3ccccc3c2)NC1=O (mixture of isomers) [X-Amcp-D-Dap-2-Nal + Acid 113]

0.041
0.028
0.00133
0.015
0.021
-0.00533
